biological target: T1, human LAP-TGFB1 Fc fusion (human); test: SPR, antigen-Fc captured, Fab analyte
T1 construct: also called human LAP-TGFβ1-Fc; human LAP-TGFβ-Fc isoform 1
T1 sequence (chain, as listed by the source limits assumed): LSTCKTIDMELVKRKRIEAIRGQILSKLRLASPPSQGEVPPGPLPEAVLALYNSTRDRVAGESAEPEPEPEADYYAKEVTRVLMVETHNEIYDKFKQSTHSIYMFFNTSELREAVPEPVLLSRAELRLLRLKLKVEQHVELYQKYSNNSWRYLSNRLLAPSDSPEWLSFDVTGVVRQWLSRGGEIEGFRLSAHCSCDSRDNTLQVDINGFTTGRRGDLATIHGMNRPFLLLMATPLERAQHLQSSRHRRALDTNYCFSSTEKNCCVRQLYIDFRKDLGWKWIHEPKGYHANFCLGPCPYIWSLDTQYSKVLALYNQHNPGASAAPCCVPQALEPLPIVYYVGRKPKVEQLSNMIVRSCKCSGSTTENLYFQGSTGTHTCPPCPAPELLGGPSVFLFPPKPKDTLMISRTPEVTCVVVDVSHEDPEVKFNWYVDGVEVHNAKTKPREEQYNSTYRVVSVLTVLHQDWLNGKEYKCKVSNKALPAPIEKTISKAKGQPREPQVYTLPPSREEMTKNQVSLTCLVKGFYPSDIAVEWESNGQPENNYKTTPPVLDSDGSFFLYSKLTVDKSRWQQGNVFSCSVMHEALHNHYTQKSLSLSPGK
endpoint: koff

If you can, please state the reported koff value of VH W33Y/VL T30Y (90BJM) (Fab, V domains shown, also called VH33/VL30) VH: EVQLVQSGAEVKKPGASVKVSCKASGYTFTSYYMHWVRQAPGQGLEWMGRIDPQSGGIKYAQKFQGRATLTVDTSTSTAYMELSRLRSDDTAVYYCARWDYGGYFDVWGQGTLVTVSS VL: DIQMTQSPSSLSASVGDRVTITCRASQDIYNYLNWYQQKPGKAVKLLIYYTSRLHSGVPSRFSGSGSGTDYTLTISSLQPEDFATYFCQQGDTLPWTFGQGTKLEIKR . 0.0075 s⁻¹
